Entry source: patent EP0620225B1

Tested on: S.aureus 734 MRSA
Assay: Antibacterial spectrum (MIC), agar dilution
Type: cell-based
Settings: Staphylococcus aureus, read-out: MIC
MEASURED_ENDPOINT: MIC (µg/mL)

# COMPOUND, MEASURED_ENDPOINT, OUTPUT_UNIT, VALUE_COMPARATOR, REPORTED_RESULT
rows = [
    ("CO/N=C(\\C(=O)N[C@@H]1C(=O)N2C(C(=O)O)=C(CSc3nc(=O)c(=O)[nH]n3C)CS[C@H]12)c1csc(N)n1 [Ceftriaxone, reference compound]", "MIC", "µg/mL", ">", 32),
    ("C#CCN1CC/C(=C\\C2=C(C(=O)O)N3C(=O)[C@@H](NC(=O)/C(=N\\O)c4csc(N)n4)[C@H]3SC2)C1=O [O]", "MIC", "µg/mL", "=", 4),
    ("Nc1nc(/C(=N/O)C(=O)N[C@@H]2C(=O)N3C(C(=O)O)=C(/C=C4\\CCN(C5CC5)C4=O)CS[C@H]23)cs1 [D]", "MIC", "µg/mL", "=", 16),
]
